This collection of values is drawn from patent EP0823908B1.

TARGET UNDER TEST: mouse PDGF-β receptor tyrosine kinase (Mus musculus, UniProt P05622)
Construct: amplify a fragment of DNA that codes for the intracellular tyrosine kinase domain; made in house; host or cells: SF9 insect cells (baculovirus)
Sequence (P05622 599-961 limits assumed): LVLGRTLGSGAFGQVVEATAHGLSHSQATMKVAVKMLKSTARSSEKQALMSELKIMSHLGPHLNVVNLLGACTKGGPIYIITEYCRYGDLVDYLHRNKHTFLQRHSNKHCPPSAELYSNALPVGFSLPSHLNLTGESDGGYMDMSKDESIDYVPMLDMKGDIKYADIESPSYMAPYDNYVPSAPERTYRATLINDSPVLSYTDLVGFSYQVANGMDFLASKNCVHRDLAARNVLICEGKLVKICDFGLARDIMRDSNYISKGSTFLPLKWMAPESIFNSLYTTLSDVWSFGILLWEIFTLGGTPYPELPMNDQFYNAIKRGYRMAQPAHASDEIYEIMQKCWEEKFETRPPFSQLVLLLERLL
EXPERIMENTAL DETAILS: PDGF receptor tyrosine kinase assay (32P incorporation into glutamate-tyrosine co-polymer)
Format: biochemical
EXPERIMENTAL CONDITIONS: read-out: PDGFr-TK IC50
param class (str): category from IC50; see ranges bin 1: < 1000 nM; bin 2: ≥ 1000 nM and < 5000 nM; bin 3: ≥ 5000 nM

{"COMPOUND": "CN1CCN(CCCCCNc2ncc3cc(-c4c(Cl)cccc4Cl)c(=O)n(C)c3n2)CC1 [Example 81]", "LABEL CLASS": "bin 1"}
{"COMPOUND": "CCn1c(=O)c(-c2ccc3ccccc3c2)cc2cnc(Nc3ccccc3)nc21 [Example 122]", "LABEL CLASS": "bin 3"}
{"COMPOUND": "COc1ccc(Nc2ncc3cc(-c4c(Cl)cccc4Cl)c(=O)n(C)c3n2)cc1C [Example 73]", "LABEL CLASS": "bin 2"}
{"COMPOUND": "CN1CCN(CCCNc2ncc3cc(-c4c(Cl)cccc4Cl)c(=O)n(C)c3n2)CC1 [Example 38]", "LABEL CLASS": "bin 2"}
{"COMPOUND": "CCn1c(=O)c(-c2c(Cl)cccc2Cl)cc2cnc(Nc3ccc(OC)c(OC)c3)nc21 [Example 77]", "LABEL CLASS": "bin 2"}
{"COMPOUND": "CCn1c(=O)c(-c2ccsc2)cc2cnc(Nc3ccccc3)nc21 [Example 102]", "LABEL CLASS": "bin 1"}
{"COMPOUND": "CCn1c(=O)c(-c2c(Cl)cccc2Cl)cc2cnc(Nc3ccc(OC)cc3)nc21 [Example 74]", "LABEL CLASS": "bin 1"}
{"COMPOUND": "CCOc1ccc(Nc2ncc3cc(-c4c(Cl)cccc4Cl)c(=O)n(CC)c3n2)cc1 [Example 76]", "LABEL CLASS": "bin 2"}
{"COMPOUND": "CC(=O)Nc1ncc2cc(-c3c(Cl)cccc3Cl)c(=O)n(C)c2n1 [Example 15]", "LABEL CLASS": "bin 3"}
{"COMPOUND": "CCn1c(=O)c(-c2cccs2)cc2cnc(Nc3ccccc3)nc21 [Example 104]", "LABEL CLASS": "bin 1"}
{"COMPOUND": "COC(=O)Cn1c(=O)c(-c2c(Cl)cccc2Cl)cc2cnc(N)nc21 [Example 35]", "LABEL CLASS": "bin 2"}
{"COMPOUND": "CCCCNc1ncc2cc(-c3c(Cl)cccc3Cl)c(=O)n(C)c2n1 [Example 45]", "LABEL CLASS": "bin 3"}
{"COMPOUND": "CCn1c(=N)c(-c2cc(C)cc(C)c2)cc2cnc(Nc3ccccc3)nc21 [Example 117]", "LABEL CLASS": "bin 3"}
{"COMPOUND": "Cn1c(=O)c(-c2c(Cl)cccc2Cl)cc2cnc(Nc3cccc(C(=O)O)c3)nc21 [Example 90]", "LABEL CLASS": "bin 1"}
{"COMPOUND": "Cn1c(=O)c(-c2c(Cl)cccc2Cl)cc2cnc(NCc3ccccn3)nc21 [Example 49]", "LABEL CLASS": "bin 2"}
{"COMPOUND": "Nc1ncc2cc(-c3c(Cl)cccc3Cl)c(N)nc2n1 [Example 10]", "LABEL CLASS": "bin 3"}
